kinase still bound, per cent of control values, listed per item
Tested on: EGFR (human), P00533 [L858R]
Experiment Summary: KINOMEscan competition binding
Condition Label: compound 10.0 µM
Metric Name: kinase still bound, per cent of control (%)

{"Smiles Code": "COc1cc2c(Nc3ccc(NC(=O)c4ccccc4)cc3)ncnc2cc1OCCCN1CCOCC1", "Unit Info": "%", "Measurement": 8.8}
{"Smiles Code": "CN(C)C/C=C/C(=O)Nc1cccc(Nc2ncc3c(n2)N(C)c2ccccc2C(=O)N3C)c1", "Unit Info": "%", "Measurement": 73}
{"Smiles Code": "O=C(NC1CC1)c1cccc(-c2ccc3c(NC(=O)C4CC4)n[nH]c3c2)c1", "Unit Info": "%", "Measurement": 93}
{"Smiles Code": "CNC(=O)Nc1ccc(-c2nc(N3CC4CCC(C3)O4)c3cnn(C4CCC5(CC4)OCCO5)c3n2)cc1", "Unit Info": "%", "Measurement": 53}
{"Smiles Code": "Cc1cc([C@@H](C)Nc2ccccc2C(=O)O)c2nc(N3CCOCC3)cc(=O)n2c1", "Unit Info": "%", "Measurement": 100}
{"Smiles Code": "C=CC(=O)Nc1cccc(Nc2nc(N[C@H]3CC[C@H](N(C)C)CC3)nc3c2ncn3C(C)C)c1", "Unit Info": "%", "Measurement": 99}
{"Smiles Code": "O=C(Nc1cccc(Nc2ncc(Br)c(NCCc3cnc[nH]3)n2)c1)N1CCCC1", "Unit Info": "%", "Measurement": 65}
{"Smiles Code": "OCCCNc1cc(-c2ccnc(Nc3cccc(Cl)c3)n2)ccn1", "Unit Info": "%", "Measurement": 100}
{"Smiles Code": "C=CC(=O)Nc1cc(NC(=O)c2ccc(C)c(NC(=O)c3ccno3)c2)cc(C(F)(F)F)c1", "Unit Info": "%", "Measurement": 100}

----------
Tested on: PIK3CA (human), P42336 [M1043I]
Sequence (P42336 whole entry M1043I, looked up): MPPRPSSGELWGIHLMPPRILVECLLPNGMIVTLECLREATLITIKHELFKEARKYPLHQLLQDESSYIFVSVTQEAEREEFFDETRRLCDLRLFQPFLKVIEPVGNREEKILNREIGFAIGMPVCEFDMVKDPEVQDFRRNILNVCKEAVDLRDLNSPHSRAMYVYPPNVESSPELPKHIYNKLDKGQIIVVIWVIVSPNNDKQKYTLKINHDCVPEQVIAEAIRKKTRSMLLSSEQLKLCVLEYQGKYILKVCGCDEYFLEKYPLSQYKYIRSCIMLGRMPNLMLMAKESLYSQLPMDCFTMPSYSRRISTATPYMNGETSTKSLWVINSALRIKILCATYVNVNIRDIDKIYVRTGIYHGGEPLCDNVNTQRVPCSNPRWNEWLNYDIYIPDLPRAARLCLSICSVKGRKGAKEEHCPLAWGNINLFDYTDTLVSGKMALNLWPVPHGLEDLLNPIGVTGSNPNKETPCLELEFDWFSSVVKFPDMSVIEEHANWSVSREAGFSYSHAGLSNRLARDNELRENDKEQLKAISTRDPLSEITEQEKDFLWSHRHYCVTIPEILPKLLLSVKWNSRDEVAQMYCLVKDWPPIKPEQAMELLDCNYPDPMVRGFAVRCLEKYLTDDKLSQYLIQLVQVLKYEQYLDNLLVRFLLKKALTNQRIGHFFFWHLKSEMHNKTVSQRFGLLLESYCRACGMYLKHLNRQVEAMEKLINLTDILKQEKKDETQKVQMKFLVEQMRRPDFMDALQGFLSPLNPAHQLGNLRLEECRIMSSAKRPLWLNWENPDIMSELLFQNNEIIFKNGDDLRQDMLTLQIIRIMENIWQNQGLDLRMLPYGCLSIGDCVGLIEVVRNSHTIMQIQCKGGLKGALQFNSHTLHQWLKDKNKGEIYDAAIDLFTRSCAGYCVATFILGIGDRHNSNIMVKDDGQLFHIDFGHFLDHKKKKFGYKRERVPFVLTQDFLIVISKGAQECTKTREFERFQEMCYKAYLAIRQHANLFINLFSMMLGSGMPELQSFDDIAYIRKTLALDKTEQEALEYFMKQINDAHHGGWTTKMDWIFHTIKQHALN
Experiment Summary: KINOMEscan competition binding
Condition Label: compound 10.0 µM
Metric Name: kinase still bound, per cent of control (%)

{"Smiles Code": "O=C(NOC[C@H](O)CO)c1ccc(F)c(F)c1Nc1ccc(I)cc1F", "Metric Name": "kinase still bound, per cent of control", "Unit Info": "%", "Measurement": 42}
{"Smiles Code": "COc1cc(N2CCN(C)CC2)ccc1Nc1ncc2c(n1)N(C)c1ccccc1C(=O)N2C", "Metric Name": "kinase still bound, per cent of control", "Unit Info": "%", "Measurement": 100}
{"Smiles Code": "COCC(=O)NC/C=C/c1ccc2ncnc(Nc3ccc(Oc4ccc(C)nc4)c(C)c3)c2c1", "Metric Name": "kinase still bound, per cent of control", "Unit Info": "%", "Measurement": 100}
{"Smiles Code": "N#Cc1cc(-c2ccnc(Nc3ccc(-n4cnc(-c5cccnc5)n4)cc3)n2)cc(N2CCOCC2)c1", "Metric Name": "kinase still bound, per cent of control", "Unit Info": "%", "Measurement": 100}
{"Smiles Code": "CN(C)C/C=C/C(=O)Nc1ccc(C(=O)Nc2cccc(Nc3nccc(-c4cccnc4)n3)c2)cc1", "Metric Name": "kinase still bound, per cent of control", "Unit Info": "%", "Measurement": 100}

----------
Target Or Test System: MAP4K5 (human) (UniProt Q9Y4K4)
Sequence (Q9Y4K4 whole entry, looked up): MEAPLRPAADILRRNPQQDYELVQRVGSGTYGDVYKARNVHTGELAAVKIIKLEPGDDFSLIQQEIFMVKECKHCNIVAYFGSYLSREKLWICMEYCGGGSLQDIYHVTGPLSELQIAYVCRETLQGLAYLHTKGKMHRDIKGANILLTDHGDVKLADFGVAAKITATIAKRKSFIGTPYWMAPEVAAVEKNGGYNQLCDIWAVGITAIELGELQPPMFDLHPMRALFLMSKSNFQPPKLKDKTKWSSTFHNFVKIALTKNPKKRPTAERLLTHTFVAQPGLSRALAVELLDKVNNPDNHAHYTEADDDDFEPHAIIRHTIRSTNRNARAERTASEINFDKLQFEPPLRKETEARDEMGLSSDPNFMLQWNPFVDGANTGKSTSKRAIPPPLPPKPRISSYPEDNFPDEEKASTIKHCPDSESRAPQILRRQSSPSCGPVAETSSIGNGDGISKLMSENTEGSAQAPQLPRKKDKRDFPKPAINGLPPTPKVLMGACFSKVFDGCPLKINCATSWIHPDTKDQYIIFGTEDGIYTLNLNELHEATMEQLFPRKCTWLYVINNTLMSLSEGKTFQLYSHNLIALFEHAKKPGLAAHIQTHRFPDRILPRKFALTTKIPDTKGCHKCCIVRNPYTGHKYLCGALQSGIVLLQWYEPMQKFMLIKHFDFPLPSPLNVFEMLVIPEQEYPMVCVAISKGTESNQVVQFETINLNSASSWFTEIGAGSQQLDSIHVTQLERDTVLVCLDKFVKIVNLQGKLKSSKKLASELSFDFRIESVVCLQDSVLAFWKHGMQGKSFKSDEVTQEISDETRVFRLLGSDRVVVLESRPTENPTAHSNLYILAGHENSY
Experiment Summary: KINOMEscan competition binding
Condition Label: compound 10.0 µM
Categories are assigned from the measured kinase still bound, per cent of control using these intervals: bottom bin = under 30%, middle bin = from 30% up to 90%, top bin = 90% and over

{"Compound": "N#Cc1cc(-c2ccnc(Nc3ccc(-n4cnc(-c5cccnc5)n4)cc3)n2)cc(N2CCOCC2)c1", "Classification": "bottom bin"}
{"Compound": "COc1ccc(N(C(=O)Oc2cc(C(=O)Nc3cccc(C(F)(F)F)c3)ccc2C)c2ccnc(Nc3ccc(N4CCN(C)CC4)cc3)n2)c(OC)c1", "Classification": "bottom bin"}
{"Compound": "CCCS(=O)(=O)Nc1ccc(F)c(C(=O)c2c[nH]c3ncc(Cl)cc23)c1F", "Classification": "bottom bin"}
{"Compound": "COc1cc(C)c(Sc2cnc(NC(=O)c3ccc(CNC(C)C(C)C)cc3)s2)cc1C(=O)N1CCN(C(C)=O)CC1 (stereo unspecified)", "Classification": "top bin"}
{"Compound": "O=c1[nH]c2ccccc2n1C1CCN(Cc2ccc(-c3nc4cc5[nH]cnc5cc4nc3-c3ccccc3)cc2)CC1", "Classification": "middle bin"}
{"Compound": "CNC(=O)Nc1ccc(-c2nc(N3CC4CCC(C3)O4)c3cnn(C4CCC5(CC4)OCCO5)c3n2)cc1", "Classification": "middle bin"}
{"Compound": "C=CC(=O)Nc1ccc(C(=O)c2sc(Nc3ccc(N4CCN(C)CC4)cc3OC)nc2N)cc1", "Classification": "middle bin"}
{"Compound": "Cc1cn(-c2cc(C(=O)Nc3ccc(C)c(NC(=O)c4ccno4)c3)cc(C(F)(F)F)c2)cn1", "Classification": "top bin"}
{"Compound": "CCN1CCN(Cc2ccc(NC(=O)c3ccc(C)c(/C=C/c4cnc5[nH]ccc5c4OC)c3)cc2C(F)(F)F)CC1", "Classification": "bottom bin"}
{"Compound": "N#C/C(=C1/Nc2ccccc2S1)c1ccnc(NCCc2cccnc2)n1", "Classification": "top bin"}
{"Compound": "COc1cc2ncnc(Nc3cccc(Cl)c3)c2cc1OC", "Classification": "bottom bin"}
